Just for reference, ChEMBL document CHEMBL1921745 is where these values come from.

- Measured on: C-C chemokine receptor type 2 (Homo sapiens, UniProt P41597)
- Sequence (P41597 whole entry): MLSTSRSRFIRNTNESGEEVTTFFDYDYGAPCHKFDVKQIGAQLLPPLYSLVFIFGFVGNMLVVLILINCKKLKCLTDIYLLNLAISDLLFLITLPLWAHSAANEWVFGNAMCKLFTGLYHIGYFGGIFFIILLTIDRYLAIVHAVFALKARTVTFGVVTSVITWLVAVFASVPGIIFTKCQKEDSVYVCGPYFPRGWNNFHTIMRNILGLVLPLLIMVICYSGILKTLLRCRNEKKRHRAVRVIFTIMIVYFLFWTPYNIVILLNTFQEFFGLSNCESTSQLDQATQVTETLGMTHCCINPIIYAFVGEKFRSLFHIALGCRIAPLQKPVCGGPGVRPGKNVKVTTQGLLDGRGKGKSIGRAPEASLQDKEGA
- Measurement protocol: Antagonist activity at CCR2 receptor in human whole blood assessed as inhibition of MCP-1 induced monocyte shape change pretreated for 15 mins before MCP-1 challenge measured after 5 mins by flow cytometry
- Type: functional, tissue-based
- Test settings: read-out: pA2 (converted)
Measurement name: Kb

{"Compound": "O=C(NCCN1CCC(F)(F)C1)c1ccc(Oc2ccc(Cl)cc2NS(=O)(=O)c2ccc(Cl)c(C(F)(F)F)c2)cc1", "Endpoint result": "3.98 µM"}
{"Compound": "O=C(NCCN1CCCCC1)c1ccc(Oc2ncc(Cl)cc2NS(=O)(=O)c2ccc(Cl)c(Cl)c2)cc1", "Endpoint result": "1.58 µM"}
{"Compound": "Cc1cc(Oc2ccc(C(=O)NCCN3CCCCC3)cc2)c(NS(=O)(=O)c2ccc(Cl)c(C(F)(F)F)c2)cc1Cl", "Endpoint result": "1.26 µM"}
{"Compound": "COc1cc(C(=O)NCCN2CCCCC2)ccc1Oc1ccc(Cl)cc1NS(=O)(=O)c1ccc(Cl)c(C(F)(F)F)c1", "Endpoint result": "1 µM"}

---

Catalogue of compounds with associated pKi
- Measured on: C-C chemokine receptor type 2 (Homo sapiens)
- Measurement protocol: Antagonist activity at human CCR2 receptor expressed in CHO cells assessed as inhibition of MCP1-induced [35S]-GTPgammaS binding after 3 hrs
- Assay type: functional, cell-based
pKi: −log10 of the molar value.

{"Compound": "Cc1cc(Oc2ccc(C(=O)NCCN3CCCCC3)cc2)c(NS(=O)(=O)c2ccc(Cl)c(C(F)(F)F)c2)cc1Cl", "pKi": 7.80}
{"Compound": "COc1cc(C(=O)NCCN2CCCCC2)ccc1Oc1ccc(Cl)cc1NS(=O)(=O)c1ccc(Cl)c(C(F)(F)F)c1", "pKi": 7.60}
{"Compound": "O=C(NCCN1CCCCC1)c1ccc(Oc2ncc(Cl)cc2NS(=O)(=O)c2ccc(Cl)c(C(F)(F)F)c2)cc1", "pKi": 8.52}
{"Compound": "Cc1cc(C(=O)NCCN2CCCC2)ccc1Oc1ccc(Cl)cc1NS(=O)(=O)c1ccc(Cl)c(C(F)(F)F)c1", "pKi": 8.10}
